Each recorded value in this set is attributed to patent US20050282743A1.

Listed substances paired with reported Classification
- subject of test: PDZ protein (GST-PDZ fusion) (Homo sapiens)
- Construct: made in house; host or cells: E. coli (DH5alpha, BL21 or JM109)
- experimental details: G' assay (10 uM PL peptide), results of TABLE 7 and TABLE 12
- Type: binding
- study conditions: PDZ hAPXL, PDZ Domain 1
Ends that are not written are not given here. * marks the point of attachment. Biotin = O=C1N[C@H]2[C@H](CS[C@H]2CCCCC(=O)*)N1

Solved entries:
Measured Classification of YSATYSELEDPGEMSPPIDL (Biotin-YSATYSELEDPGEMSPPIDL) [FceRlb] : 1 (A450 nm 0-1)

Form: substance = PTR2_HUMAN (Biotin-RPMESNPDTEGAQGETEDVL) ; Classification = 1 (A450 nm 0-1)

Entry A2AA_HUMAN (modified) (Biotin-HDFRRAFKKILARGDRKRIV; not fully specified) — recorded Classification = 1 (A450 nm 0-1)

More entries:
So, A2AC_HUMAN (Modified) (Biotin-DFRPSFKHILFRRARRGFRQ; not fully specified) ? Its Classification was 3 (A450 nm 2-3)

Record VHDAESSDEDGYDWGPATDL (Biotin-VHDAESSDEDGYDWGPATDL) [zona occludens 3 (ZO-3)] , field Classification: 2 (A450 nm 1-2)

# substance NGGFAVDKSDTISFTQTSQF [glutamate transporter 3] ; its Classification = 1 (A450 nm 0-1)

----------
- subject of test: PDZ protein (GST-PDZ fusion) (Homo sapiens, UniProt Q12923)
- Construct: made in house; host or cells: E. coli (DH5alpha, BL21 or JM109)
- Sequence (Q12923 whole entry, the tested form may be a part): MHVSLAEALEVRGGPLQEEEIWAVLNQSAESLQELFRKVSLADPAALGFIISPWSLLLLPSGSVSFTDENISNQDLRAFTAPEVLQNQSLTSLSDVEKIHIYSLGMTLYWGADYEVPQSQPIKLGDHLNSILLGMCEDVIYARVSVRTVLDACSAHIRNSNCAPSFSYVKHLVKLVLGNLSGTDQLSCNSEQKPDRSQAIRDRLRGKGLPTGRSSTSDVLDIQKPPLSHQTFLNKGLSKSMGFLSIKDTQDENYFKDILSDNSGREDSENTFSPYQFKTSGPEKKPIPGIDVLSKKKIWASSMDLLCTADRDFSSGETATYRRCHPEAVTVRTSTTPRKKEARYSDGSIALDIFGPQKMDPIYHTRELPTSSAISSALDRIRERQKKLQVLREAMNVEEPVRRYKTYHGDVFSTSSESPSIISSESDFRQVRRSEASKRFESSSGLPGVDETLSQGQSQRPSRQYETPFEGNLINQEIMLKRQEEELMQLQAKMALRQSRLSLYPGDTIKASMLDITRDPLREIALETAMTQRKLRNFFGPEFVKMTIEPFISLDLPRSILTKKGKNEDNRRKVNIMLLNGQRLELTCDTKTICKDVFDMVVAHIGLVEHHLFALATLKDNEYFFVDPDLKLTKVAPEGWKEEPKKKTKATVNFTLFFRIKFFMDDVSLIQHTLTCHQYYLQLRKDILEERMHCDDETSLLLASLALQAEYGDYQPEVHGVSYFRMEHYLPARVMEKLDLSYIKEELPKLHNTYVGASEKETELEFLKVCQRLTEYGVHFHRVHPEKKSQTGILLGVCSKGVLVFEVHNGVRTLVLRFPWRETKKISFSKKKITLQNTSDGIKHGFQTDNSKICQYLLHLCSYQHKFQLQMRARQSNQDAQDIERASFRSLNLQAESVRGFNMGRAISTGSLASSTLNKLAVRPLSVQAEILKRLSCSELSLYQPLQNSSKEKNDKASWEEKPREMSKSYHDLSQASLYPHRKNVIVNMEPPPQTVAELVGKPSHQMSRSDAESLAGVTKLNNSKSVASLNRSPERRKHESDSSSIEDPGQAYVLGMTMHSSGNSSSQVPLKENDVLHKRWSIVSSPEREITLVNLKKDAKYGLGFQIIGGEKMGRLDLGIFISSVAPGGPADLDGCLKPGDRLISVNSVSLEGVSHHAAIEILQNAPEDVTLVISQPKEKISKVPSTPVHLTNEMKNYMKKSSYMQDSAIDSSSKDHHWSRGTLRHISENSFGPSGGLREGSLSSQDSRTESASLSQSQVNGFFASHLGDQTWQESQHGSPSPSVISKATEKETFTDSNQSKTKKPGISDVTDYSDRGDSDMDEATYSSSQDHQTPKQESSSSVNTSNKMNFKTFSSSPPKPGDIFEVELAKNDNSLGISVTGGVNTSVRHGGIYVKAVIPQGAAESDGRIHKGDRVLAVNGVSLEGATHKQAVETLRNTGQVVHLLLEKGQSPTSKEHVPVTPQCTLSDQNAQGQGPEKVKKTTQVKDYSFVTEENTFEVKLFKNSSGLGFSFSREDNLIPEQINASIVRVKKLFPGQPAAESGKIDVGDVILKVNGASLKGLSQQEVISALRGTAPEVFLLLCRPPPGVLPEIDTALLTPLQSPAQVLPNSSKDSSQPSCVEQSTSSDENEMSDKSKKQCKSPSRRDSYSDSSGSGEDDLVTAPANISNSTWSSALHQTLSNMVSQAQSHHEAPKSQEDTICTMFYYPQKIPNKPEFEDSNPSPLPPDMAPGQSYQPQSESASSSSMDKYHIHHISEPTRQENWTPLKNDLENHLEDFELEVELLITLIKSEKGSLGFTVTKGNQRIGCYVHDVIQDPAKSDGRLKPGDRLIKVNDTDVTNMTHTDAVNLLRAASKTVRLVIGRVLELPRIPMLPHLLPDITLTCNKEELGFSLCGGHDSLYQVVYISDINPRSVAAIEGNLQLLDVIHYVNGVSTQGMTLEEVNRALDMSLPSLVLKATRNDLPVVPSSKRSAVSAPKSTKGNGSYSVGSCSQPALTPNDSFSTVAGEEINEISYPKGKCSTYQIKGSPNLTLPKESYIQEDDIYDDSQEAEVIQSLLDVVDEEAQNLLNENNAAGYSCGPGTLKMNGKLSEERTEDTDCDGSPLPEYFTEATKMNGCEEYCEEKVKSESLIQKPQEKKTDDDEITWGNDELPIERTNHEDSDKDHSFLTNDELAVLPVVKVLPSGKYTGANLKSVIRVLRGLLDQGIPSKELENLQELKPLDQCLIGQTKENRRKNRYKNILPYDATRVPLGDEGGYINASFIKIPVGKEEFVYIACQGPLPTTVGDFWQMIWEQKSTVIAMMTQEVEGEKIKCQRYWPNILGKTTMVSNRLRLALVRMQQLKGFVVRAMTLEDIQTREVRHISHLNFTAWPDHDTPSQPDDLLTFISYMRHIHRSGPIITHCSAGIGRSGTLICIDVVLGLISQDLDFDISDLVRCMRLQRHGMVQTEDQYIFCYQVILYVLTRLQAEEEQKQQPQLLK
- experimental details: G' assay (10 uM PL peptide), results of TABLE 7 and TABLE 12
- Format: binding
- study conditions: PDZ PTPL-1, PDZ Domain 2
Ends that are not written are not given here. * marks the point of attachment. Biotin = O=C1N[C@H]2[C@H](CS[C@H]2CCCCC(=O)*)N1
Each record here notes measured Classification.

Completed entries (count: 2):
Entry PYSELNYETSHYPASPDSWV (Biotin-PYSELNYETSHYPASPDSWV) [catenin - delta 2] ; assay system PDZ protein (GST-PDZ fusion) (Homo sapiens, UniProt Q12923); Classification recorded at 5 (A450 nm of 4 more than 2× repeated)

Tested on PDZ protein (GST-PDZ fusion) (Homo sapiens, UniProt Q12923): A2AA_HUMAN (modified) (Biotin-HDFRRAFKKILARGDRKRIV; not fully specified) . Observed Classification: 2 (A450 nm 1-2)

---
Note to self: Classification of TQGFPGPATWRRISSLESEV with PDZ protein (GST-PDZ fusion) (Homo sapiens, UniProt Q12923) was 5 (A450 nm of 4 more than 2× repeated)

// substance HPTDITGLPNLSDPSVSTVV (Biotin-HPTDITGLPNLSDPSVSTVV) [NMDA R2C] , assay PDZ protein (GST-PDZ fusion) (Homo sapiens, UniProt Q12923), Classification value: 1 (A450 nm 0-1)

Summary: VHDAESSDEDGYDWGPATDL (Biotin-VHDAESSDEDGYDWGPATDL) [zona occludens 3 (ZO-3)] , PDZ protein (GST-PDZ fusion) (Homo sapiens, UniProt Q12923), Classification = 2 (A450 nm 1-2)

Reported PDZ protein (GST-PDZ fusion) (Homo sapiens, UniProt Q12923) Classification for item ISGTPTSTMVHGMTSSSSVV (Biotin-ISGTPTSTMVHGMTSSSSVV) [Clasp-2] was 1 (A450 nm 0-1)

For PYQSQGFSTEEDEDEQVSAV (Biotin-PYQSQGFSTEEDEDEQVSAV) [RA-GEF (ras/rap1A-assoc-GEF)] on PDZ protein (GST-PDZ fusion) (Homo sapiens, UniProt Q12923), measured Classification was 4 (A450 nm 3-4)

Item: SLKPGTVLPPPPYRHRNTVV (Biotin-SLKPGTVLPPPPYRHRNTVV) [ErbB-4 receptor] | System: PDZ protein (GST-PDZ fusion) (Homo sapiens, UniProt Q12923) | Classification: 2 (A450 nm 1-2)
